In this section, each of the molecules is paired with its reported melting point.

# COMPOUND STRUCTURE STRING, melting point
data = [
    ("Cc1cc(CN2CCC3(CC2)COC3)cc2c(=O)[nH]c(-c3cc4sccc4cn3)nc12", "> 250 °C"),
    ("Cc1cc(CCN2CCOCC2)nc2c(=O)[nH]c(-c3cc(C(F)(F)F)ccn3)nc12.Cl", "168 to 173 °C"),
    ("Cc1cc(CCN2CCN(C)C(=O)C2)cc2c(=O)[nH]c(-c3cc4ccsc4cn3)nc12.Cl", "> 250 °C"),
]

Q: Give a short answer stating reported melting point for Cc1cc(CC(=O)N2CCCOCC2)cc2c(=O)[nH]c(-c3cc4ccsc4cn3)nc12 .
Result: 215 to 220 °C

The values you see were collected from patent US20220089609A1.
